Known IC50 of a selection of molecules
Target: Sgk2 (Homo sapiens)
Sequence (Q9HBY8 whole entry): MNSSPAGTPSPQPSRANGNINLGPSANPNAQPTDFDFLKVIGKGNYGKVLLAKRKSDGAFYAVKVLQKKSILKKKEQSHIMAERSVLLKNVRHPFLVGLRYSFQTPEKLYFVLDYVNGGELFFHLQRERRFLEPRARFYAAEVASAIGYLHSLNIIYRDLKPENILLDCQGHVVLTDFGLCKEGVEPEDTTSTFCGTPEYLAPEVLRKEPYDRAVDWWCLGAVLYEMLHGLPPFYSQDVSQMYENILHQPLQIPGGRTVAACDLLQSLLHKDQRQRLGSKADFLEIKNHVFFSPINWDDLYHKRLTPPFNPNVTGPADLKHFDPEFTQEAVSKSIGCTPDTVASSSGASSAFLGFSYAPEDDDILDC
Assay: Enzyme based assay for SGK2 (biotinylated Akt Substrates-2 peptide, Eu3+ Cryptate/XL665 detection)
Format: biochemical
Conditions: 1 mM ATP; read-out: Sgk2 (1 mM ATP)
Quick note: give the figure in nM, leave out the unit.

Record excerpt, results attached:
>>> print(df.to_string())
                                   molecule   measurement_target  value_measured
0  COc1ccc(F)c(S(=O)(=O)Nc2ccc(-c3cc4[nH]ncc4c(OCC4CNCCO4)n3)cc2)c1 (stereo not drawn) [drawing 105]  Sgk2 (Homo sapiens)              10
1  COc1ccc(Cl)c(S(=O)(=O)Nc2ccc(-c3ccc4c(N)n[nH]c4n3)cc2)c1  Sgk2 (Homo sapiens)            65.1

Identify the reported IC50 for the following entry. "COc1ccc(F)c(S(=O)(=O)Nc2ccc(-c3cnc4c(N)n[nH]c4c3)nc2)c1" 134

Consider the molecule "COc1ccc(F)c(S(=O)(=O)Nc2cnc(-c3cc(OC)c4c(N)n[nH]c4c3)nc2)c1" . State its measured IC50. 4

For the molecule "COc1ccc(F)c(S(=O)(=O)Nc2cnc(-c3ccc4c(N)n[nH]c4c3)nc2)c1" , report IC50. 7.5
